# TESTED_TARGET: β-secretase(BACE) (Homo sapiens)
# Construct: purchased Panvera
# Sequence (P56817 46-501): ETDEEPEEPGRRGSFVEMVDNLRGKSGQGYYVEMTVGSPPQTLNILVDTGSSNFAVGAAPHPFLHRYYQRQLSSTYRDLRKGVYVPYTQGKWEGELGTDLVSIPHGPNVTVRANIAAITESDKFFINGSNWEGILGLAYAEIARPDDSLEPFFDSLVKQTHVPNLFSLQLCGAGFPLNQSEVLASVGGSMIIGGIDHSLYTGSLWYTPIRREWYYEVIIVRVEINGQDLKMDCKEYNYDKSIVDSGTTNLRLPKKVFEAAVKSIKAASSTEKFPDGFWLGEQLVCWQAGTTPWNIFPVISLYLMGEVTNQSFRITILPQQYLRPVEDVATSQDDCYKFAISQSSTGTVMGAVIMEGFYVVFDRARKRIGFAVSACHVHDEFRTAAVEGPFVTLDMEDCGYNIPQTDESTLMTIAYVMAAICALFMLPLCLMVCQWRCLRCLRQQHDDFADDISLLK
# MEASUREMENT_DESCRIPTION: BACE FS1% Inhibition Assay
# Type: biochemical
# EXPERIMENTAL_PARAMETERS: 0.3 μM test compound; FS1 substrate; read-out: % Inhibition (FS) 0.3 μM
ATTRIBUTE_MEASURED: inhibition at 0.3 µM (%)
Your answer is read as %, so omit the unit and give the number.

So the reported inhibition at 0.3 µM for CN(C(=O)c1ccnc(CN2Cc3cc(Oc4ccccc4)ccc3N=C2N)c1)C1CCCCC1 , on β-secretase(BACE) (Homo sapiens), turned out to be 31

So the reported inhibition at 0.3 µM for NC1=Nc2ccc(Oc3ccccc3)cc2CN1[C@@H](CNC(=O)C1CCCCC1)C1CCCCC1 , on β-secretase(BACE) (Homo sapiens), turned out to be 100

###

# TESTED_TARGET: β-secretase(BACE) (Homo sapiens)
# Construct: purchased Panvera
# MEASUREMENT_DESCRIPTION: BACE Assay-2 (FS1 substrate, IC50 and Ki)
# Format: biochemical
# EXPERIMENTAL_PARAMETERS: procedure of Example 159, FS1 substrate; read-out: Ki μM (159)
ATTRIBUTE_MEASURED: Ki
Field note: include the unit after the figure.

response.value for CN(C(=O)CCCCN1Cc2cc(C(=O)c3ccccc3)ccc2N=C1N)C1CCCCC1 [Compound 27] (field: Ki) = 0.66 µM

response.value for CCCC(CNC(=O)OC(C)(C)C)N1Cc2cc(Oc3ccccc3)ccc2N=C1N (centres unmarked) [Compound 318] (field: Ki) = 0.19 µM

response.value for CC(C)(C)OC(=O)NCCN1Cc2cc(Oc3ccccc3)ccc2N=C1N [Compound 80] (field: Ki) = 0.12 µM

response.value for CN(C(=O)CCCC(c1ccccc1)N1Cc2cc(Oc3ccccc3)ccc2N=C1N)C1CCCCC1 (centres unmarked) [Compound 152] (field: Ki) = 0.3 µM

response.value for NC1=Nc2ccc(Oc3ccccc3)cc2CN1C(CNC(=O)C1CCCCC1)c1ccccc1 (centres unmarked) [Compound 342] (field: Ki) = 0.19 µM

response.value for CN(C(=O)c1cccc(CN2Cc3cc(-c4ccccc4C(N)=O)ccc3N=C2N)c1)C1CCCCC1 [Compound 173] (field: Ki) = 0.47 µM

response.value for CN(C(=O)c1cccc(CN2Cc3cc(-c4ccccc4C(F)(F)F)ccc3N=C2N)c1)C1CCCCC1 [Compound 268] (field: Ki) = 0.65 µM

response.value for CCCC(CCC(=O)NC1CCCCC1)N1Cc2cc(Oc3ccccc3)ccc2N=C1N (centres unmarked) [Compound 129] (field: Ki) = 0.12 µM

response.value for CN(C(=O)c1cccc(CN2Cc3cc(-c4ccccc4C#N)ccc3N=C2N)c1)C1CCCCC1 [Compound 263] (field: Ki) = 0.77 µM

response.value for NC1=Nc2ccc(Oc3ccccc3)cc2CN1CCC(=O)NC1CCCCC1 [Compound 178] (field: Ki) = 0.11 µM

response.value for CN(C(=O)CC[C@@H](C1CCOCC1)N1Cc2cc(Oc3ccccc3)ccc2N=C1N)[C@H](COCc1ccccc1)C(=O)O [Compound 784] (field: Ki) = 0.298 µM

response.value for COc1ccccc1-c1ccc2c(c1)CN(CCC(=O)NC1C3CC4CC(C3)CC1C4)C(N)=N2 (centres unmarked) [Compound 556] (field: Ki) = 0.044 µM

response.value for CC(C)CCC(=O)NCCN1Cc2cc(-c3ccccc3F)ccc2N=C1N [Compound 647] (field: Ki) = 0.033 µM

response.value for Cc1cccc(-c2ccc3c(c2)CN(CCNC(=O)C2CCCCC2)C(N)=N3)c1 [Compound 627] (field: Ki) = 0.16 µM

response.value for Cc1ccccc1-c1ccc2c(c1)CN(CCNC(=O)C1CCOCC1)C(N)=N2 [Compound 693] (field: Ki) = 0.17 µM

response.value for CN(C(=O)c1cccc(C(C2CCCCC2)N2Cc3cc(Oc4ccccc4)ccc3N=C2N)c1)C1CCCCC1 (centres unmarked) [Compound 534] (field: Ki) = 0.18 µM

response.value for CN(C(=O)c1cccc(CN2Cc3cc(-c4cccnc4)ccc3N=C2N)c1)C1CCCCC1 [Compound 170] (field: Ki) = 0.77 µM

response.value for CCC(c1cccc(C(=O)N(C)C2CCCCC2)c1)N1Cc2cc(Oc3ccccc3)ccc2N=C1N (centres unmarked) [Compound 204] (field: Ki) = 0.23 µM

response.value for NC1=Nc2ccc(Oc3ccccc3)cc2CN1[C@@H](CCC(=O)N(CCO)C1CCCCC1)C1CCCCC1 [Compound 736] (field: Ki) = 0.013 µM

response.value for CN(CCN1Cc2cc(Oc3ccccc3)ccc2N=C1N)C(=O)C1CCCCC1 [Compound 426] (field: Ki) = 0.53 µM

response.value for CC1CCCCC1NC(=O)CCN1Cc2cc(Oc3ccccc3)ccc2N=C1N (centres unmarked) [Compound 511] (field: Ki) = 0.1 µM

response.value for NC1=Nc2ccc(-c3cccc(Cl)c3)cc2CN1CCNC(=O)C1CCCCC1 [Compound 625] (field: Ki) = 0.27 µM

response.value for NC1=Nc2ccc(Oc3ccccc3)cc2CN1CCNC(=O)C1(c2ccc(Cl)cc2)CCCC1 [Compound 196] (field: Ki) = 0.11 µM

response.value for COc1cccc(Oc2ccc3c(c2)CN(Cc2cccc(C(=O)N(C)C4CCCCC4)c2)C(N)=N3)c1 [Compound 292] (field: Ki) = 1 µM

response.value for CC(=O)Nc1ccccc1-c1ccc2c(c1)CN(Cc1cccc(C(=O)N(C)C3CCCCC3)c1)C(N)=N2 [Compound 328] (field: Ki) = 0.33 µM

response.value for CCCCCC(CCC(=O)N(C)C1CCCCC1)N1Cc2cc(Oc3ccccc3)ccc2N=C1N (centres unmarked) [Compound 148] (field: Ki) = 0.25 µM

response.value for COc1cccc(F)c1-c1ccc2c(c1)CN(CCNC(=O)C1CCCCC1)C(N)=N2 [Compound 545] (field: Ki) = 0.14 µM

response.value for CN(C(=O)c1cccc(CN2Cc3cc(Oc4cccc(-c5ccccc5)c4)ccc3N=C2N)c1)C1CCCCC1 [Compound 231] (field: Ki) = 3.8 µM

response.value for NC1=Nc2ccc(Oc3ccccc3)cc2CN1[C@@H](CCC(=O)N(CCO)[C@H]1CC[C@@H](C(=O)O)CC1)C1CCOCC1 [Compound 750] (field: Ki) = 0.005 µM

response.value for CCCCCC(CCC(=O)NC1CCCCC1)N1Cc2cc(Oc3ccccc3)ccc2N=C1N (centres unmarked) [Compound 149] (field: Ki) = 0.21 µM

response.value for NC1=Nc2ccc(C(=O)c3ccccc3)cc2CN1CCCOc1ccccc1 [Compound 8] (field: Ki) = 1.2 µM

response.value for CCCS(=O)(=O)NCCN1Cc2cc(Oc3ccccc3)ccc2N=C1N [Compound 134] (field: Ki) = 0.37 µM
